Measured IC50, listed per entry for reference.
system: aromatase (AR; CYP19A) (Homo sapiens)
Construct: gene CYP19A1; construct not described
Sequence (P11511 1-503): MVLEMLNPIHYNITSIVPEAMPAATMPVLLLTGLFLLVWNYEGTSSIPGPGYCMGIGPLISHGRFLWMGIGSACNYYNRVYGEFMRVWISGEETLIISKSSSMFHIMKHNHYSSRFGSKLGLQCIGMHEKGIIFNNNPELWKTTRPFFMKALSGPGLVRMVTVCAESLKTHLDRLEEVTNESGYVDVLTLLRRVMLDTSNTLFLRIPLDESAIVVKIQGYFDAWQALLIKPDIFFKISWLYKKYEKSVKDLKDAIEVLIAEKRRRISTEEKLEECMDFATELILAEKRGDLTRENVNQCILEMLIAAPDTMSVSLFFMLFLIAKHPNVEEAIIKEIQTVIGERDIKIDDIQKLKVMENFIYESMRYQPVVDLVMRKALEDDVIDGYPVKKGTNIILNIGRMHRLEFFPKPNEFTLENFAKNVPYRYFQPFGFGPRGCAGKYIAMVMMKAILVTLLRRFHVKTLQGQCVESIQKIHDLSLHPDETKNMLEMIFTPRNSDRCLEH
method.summary: fluorometric aromatase inhibition kit
Type: biochemical
cond: read-out: AR Inhibition IC50 μM ^1
// units = µM; emit number, no label

QUERY: Notebook: pull reported IC50 for aromatase (AR; CYP19A) (Homo sapiens), entry "O=c1c(Cn2ccnc2)c(-c2ccc([N+](=O)[O-])cc2)oc2cc(O)ccc12"
RESULT: 2.1

***
QUERY: Form entry - test system: aromatase (AR; CYP19A) (Homo sapiens); read-out: IC50; compound: O=c1c(C(c2ccccc2)n2ccnc2)coc2ccccc12 (racemic)
RESULT: 0.5

QUERY: // lookup IC50 | system=aromatase (AR; CYP19A) (Homo sapiens) | key= O=c1c(C(c2ccccc2)n2ccnc2)coc2cc(O)ccc12 (racemic)
RESULT: 2.2

QUERY: So what IC50 did "O=c1c(Cn2ccnc2)c(-c2ccccc2)oc2cc(O)ccc12" get with aromatase (AR; CYP19A) (Homo sapiens)?
RESULT: 4

QUERY: Query for aromatase (AR; CYP19A) (Homo sapiens): what IC50 does the record show for O=c1c(C(c2ccc([N+](=O)[O-])cc2)n2ccnc2)coc2cc(O)ccc12 (racemic) ?
RESULT: 0.122
